All values here come from patent US9827228B2.

target: hMOR (Homo sapiens, UniProt P35372); construct: host or cells: CHO-K1; assay: cell-based; assay type: cell-based; details: AUC of [Ca2+]i fluorescence; combined with naloxone; CHO-K1/MOR/Gα15 cells; further: test concentration or dose not given here
Sequence (P35372 whole entry): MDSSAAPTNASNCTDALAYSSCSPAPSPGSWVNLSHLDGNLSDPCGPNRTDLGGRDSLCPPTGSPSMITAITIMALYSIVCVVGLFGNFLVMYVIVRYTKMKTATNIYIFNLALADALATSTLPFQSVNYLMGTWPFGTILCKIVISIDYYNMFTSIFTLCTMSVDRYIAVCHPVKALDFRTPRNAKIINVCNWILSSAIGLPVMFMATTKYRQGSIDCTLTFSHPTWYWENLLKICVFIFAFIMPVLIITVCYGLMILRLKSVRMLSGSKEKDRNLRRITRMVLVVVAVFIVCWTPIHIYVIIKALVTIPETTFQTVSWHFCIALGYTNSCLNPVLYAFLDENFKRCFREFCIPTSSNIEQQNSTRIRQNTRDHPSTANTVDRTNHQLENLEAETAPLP
observationType: AUC

Here is how some molecules turned out for AUC.
>  <molecule>
CCc1ccccc1Nc1ncc(-c2sc(C)nc2C)o1 [Compound 107]

>  <experimentalSystem>
hMOR (Homo sapiens, UniProt P35372); further: test concentration or dose not given here

>  <AUC>
+ (+: >5000)

$$$$
>  <molecule>
Cc1cc(C)c(Nc2nc(-c3sc(C)nc3C)cs2)c(C)c1 [Compound 17]

>  <experimentalSystem>
hMOR (Homo sapiens, UniProt P35372); further: test concentration or dose not given here

>  <AUC>
+ (+: >5000)

$$$$
>  <molecule>
Cc1nc(C)c(-c2csc(Nc3ccccc3Cl)n2)s1 [Compound 8]

>  <experimentalSystem>
hMOR (Homo sapiens, UniProt P35372); further: test concentration or dose not given here

>  <AUC>
− (−: <5000)

$$$$
>  <molecule>
CCc1cccc(C)c1Nc1nc(-c2sc(C)nc2C)cs1 [Compound 47]

>  <experimentalSystem>
hMOR (Homo sapiens, UniProt P35372); further: test concentration or dose not given here

>  <AUC>
+ (+: >5000)

$$$$
>  <molecule>
CCc1ccccc1Nc1nc(-c2sc(-c3ccccc3)nc2C)cs1 [Compound 92]

>  <experimentalSystem>
hMOR (Homo sapiens, UniProt P35372); further: test concentration or dose not given here

>  <AUC>
− (−: <5000)

$$$$

[in] Answer with reported AUC of Cc1ccc(C)c(Nc2nc(-c3sc(C)nc3C)cs2)c1 [Compound 25]
[out] − (−: <5000)

[in] Answer with reported AUC of CCc1nc(C)c(-c2csc(Nc3ccccc3CC)n2)s1 [Compound 95]
[out] + (+: >5000)

[in] Answer with reported AUC of CCc1ccccc1Nc1nc(-c2ccccn2)cs1 [Compound 123]
[out] − (−: <5000)

[in] Answer with reported AUC of COc1cccc(Nc2nc(-c3sc(C)nc3C)cs2)c1C [Compound 85]
[out] + (+: >5000)

[in] Answer with reported AUC of CCc1ccccc1Nc1nc(-c2sc(C)nc2C)c(C)s1 [Compound 98]
[out] − (−: <5000)

[in] Answer with reported AUC of CCc1cc(Br)ccc1Nc1nc(-c2sc(C)nc2C)cs1 [Compound 49]
[out] − (−: <5000)

[in] Answer with reported AUC of CCc1cccc(CC)c1Nc1nc(-c2sc(C)nc2C)cs1 [Compound 45]
[out] − (−: <5000)

[in] Answer with reported AUC of CCc1ccccc1Nc1nc(-c2oc(C)nc2C)cs1 [Compound 102]
[out] + (+: >5000)

[in] Answer with reported AUC of CCc1ccccc1Nc1nc(-c2cc(-c3ccccc3)no2)cs1 [Compound 129]
[out] − (−: <5000)
